B1: FtsZ (purified, WT) [E. coli] / ZapD (purified) [E. coli] (parent)
chain 1: MQTQVLFEHPLNEKMRTWLRIEFLIQQLTVNLPIVDHAGALHFFRNVSELLDVFERGEVRTELLKELDRQQRKLQTWIGVPGVDQSRIEALIQQLKAAGSVLISAPRIGQFLREDRLIALVRQRLSIPGGCCSFDLPTLHIWLHLPQAQRDSQVETWIASLNPLTQALTMVLDLIRQSAPFRKQTSLNGFYQDNGGDADLLRLNLSLDSQLYPQISGHKSRFAIRFMPLDTENGQVPERLDFELACC
chain 2: MFEPMELTNDAVIKVIGVGGGGGNAVEHMVRERIEGVEFFAVNTDAQALRKTAVGQTIQIGSGITKGLGAGANPEVGRNAADEDRDALRAALEGADMVFIAAGMGGGTGTGAAPVVAEVAKDLGILTVAVVTKPFNFEGKKRMAFAEQGITELSKHVDSLITIPNDKLLKVLGRGISLLDAFGAANDVLKGAVQGIAELITRPGLMNVDFADVRTVMSEMGYAMMGSGVASGEDRAEEAAEMAISSPLLEDIDLSGARGVLVNITAGFDLRLDEFETVGNTIRAFASDNATVVIGTSLDPDMNDELRVTVVATGIGMDKRPEITLVTNKQVQQPVMDRYQQHGMAPLTQEQKPVAKVVNDNAPQTAKEPDYLDIPAFLRKQAD

Variants of: B1
ASSAY_REMARKS: co-sedimentation assay, SDS-PAGE quantification
EXPERIMENTAL_CONDITIONS: with ZapD (purified) [E. coli]; 5 µM FtsZ with ZapD at 1:1; 50 mM K-MOPS pH 6.5, 50 mM KCl, 2.5 mM MgCl2, 1 mM GTP, 3 µM BSA; read off a plot
ASSAY_READOUT: response (% ZapD in pellet)

Prompt: Would you mind telling me what response (% ZapD in pellet) value was observed for chain 2 K380R D383R ?
Completion: 35

a: chain 2 K380D
b: chain 2 D383K
c: chain 2 K380Q A382Q D383Q
Prompt: Task for the reader: rank each entry by its response (% ZapD in pellet), from the minimum upward. I'd appreciate it if you listed the labels in the requested order.
Completion: a, c, b
(a: 10, c: 42, b: 60)
